Tested on: HCC1806
Experiment: Antiproliferative activity against human HCC1806 cells assessed as inhibition of cell growth at 20 uM by SRB assay relative to control
Assay type: functional

structure_smiles: CC(=O)O[C@H]1C[C@@H](OC(C)=O)[C@]2(C)C(=O)OC[C@]13[C@H]1C(=O)[C@H](OC(C)=O)[C@@]4(C)[C@H](c5ccoc5)C[C@H]5O[C@]54[C@]1(C)[C@H](OC(C)=O)C[C@@H]23
target_system: HCC1806
unit_spec: %
inhibition at 20 µM: -9.68
//
structure_smiles: CC(=O)O[C@@H]1C[C@H](O)[C@@]23COC[C@]1(C)[C@@H]2C[C@@H](O)[C@@]1(C)[C@@H]2C(=O)C[C@@H](c4ccoc4)[C@]2(C)[C@@H](OC(C)=O)C(=O)[C@@H]13
target_system: HCC1806
unit_spec: %
inhibition at 20 µM: -42.3
//
structure_smiles: CC(=O)O[C@@H]1C[C@H](O)[C@@]23COC[C@]1(C)[C@@H]2C[C@@H](OC(=O)/C=C/c1ccc(OC(F)(F)F)cc1)[C@@]1(C)[C@@H]2C(=O)C[C@@H](c4ccoc4)[C@]2(C)[C@@H](OC(C)=O)C(=O)[C@@H]13
target_system: HCC1806
unit_spec: %
inhibition at 20 µM: 18.1
//
structure_smiles: CC(=O)O[C@@H]1C[C@H](O)[C@@]23COC[C@]1(C)[C@@H]2C[C@@H](O)[C@@]1(C)[C@@H]2C(=O)C[C@@H](c4coc(Br)c4)[C@]2(C)[C@@H](OC(C)=O)C(=O)[C@@H]13
target_system: HCC1806
unit_spec: %
inhibition at 20 µM: 2.97

----------
Recorded inhibition at 20 µM values for a group of compounds are listed next.
Test system: HCC1806
Experiment: Antiproliferative activity against human HCC1806 cells assessed as inhibition of cell growth at 20 uM by SRB assay relative to control
Type: functional

compound: CC(=O)O[C@@H]1C[C@H](O)[C@@]23COC[C@]1(C)[C@@H]2C[C@@H](OC(=O)c1ccc([N+](=O)[O-])cc1)[C@@]1(C)[C@@H]2C(=O)C[C@@H](c4ccoc4)[C@]2(C)[C@@H](OC(C)=O)C(=O)[C@@H]13
unit_spec: %
inhibition at 20 µM: -0.88
//
compound: CC(=O)O[C@@H]1C[C@H](O)[C@@]23COC(=O)[C@]1(C)[C@@H]2C[C@@H](O)[C@]1(C)[C@@H]3C(=O)C(O)[C@@]2(C)[C@H](c3ccoc3)C[C@H]3O[C@@]312 (mixture of isomers)
unit_spec: %
inhibition at 20 µM: 9.96
